Hey, just so you know, these numbers are from ChEMBL document CHEMBL1139892.

# Tested on: Mycobacterium tuberculosis
# Procedure details: Antimycobacterial activity against Mycobacterium tuberculosis H37Ra by microplate Alamar Blue assay
# Type: functional
Catalogue of molecules with associated log10 of MIC
Field: value | Transform: log10 | Quantity: MIC | Unit: µM

| Molecule | log10 of MIC |
| --- | --- |
| COc1cc(O)cc(CCc2ccccc2O)c1 | 2.31 |
| COc1cc(CCc2ccccc2O)c(O)c(OC)c1 | 1.96 |
| COc1c(O)c(C)c(OC)c2c1CCc1c(O)cccc1O2 [BAUHINOXEPIN F] | 2.82 |
| COC1=CC(=O)C2=C(CCc3ccccc3O2)C1=O [BAUHINOXEPIN J] | 1.39 |

Input line: Name the recorded log10 of MIC of the item COc1cc2c(c(O)c1C)Oc1cccc(O)c1CC2 [BAUHINOXEPIN C] in your answer.
Output line: 2.26

Input line: Determine from records and report log10 of MIC for COc1c(C)c(O)cc2c1Oc1cccc(O)c1CC2 [BAUHINOXEPIN D]
Output line: 2.26

Input line: Using the record for COc1c(C)c(OC)c2c(c1O)CCc1c(O)cccc1O2 [BAUHINOXEPIN E] , state its measured log10 of MIC.
Output line: 2.52

Input line: Consider the molecule COC1=C(C)C(=O)C2=C(CCc3c(O)cccc3O2)C1=O [BAUHINOXEPIN H] . State its measured log10 of MIC.
Output line: 1.94

----------
Reported pIC50, Prostaglandin G/H synthase 1 (Homo sapiens).
pIC50: −log10 of the molar value.

Below, each entry is followed by its recorded pIC50 result.
| Molecule | Experimental result |
| --- | --- |
| COC1=C(C)C(=O)C2=C(CCc3c(O)cccc3O2)C1=O [BAUHINOXEPIN H] | < 4.46 |
| COc1c(C)c(OC)c2c(c1O)CCc1c(O)cccc1O2 [BAUHINOXEPIN E] | < 4.48 |

Input line: Please tell me the measured pIC50 for COC1=C(C)C(=O)C2=C(CCc3cc(O)ccc3O2)C1=O [BAUHINOXEPIN I] ; system: Prostaglandin G/H synthase 1 (Homo sapiens).
Sequence (P23219 whole entry): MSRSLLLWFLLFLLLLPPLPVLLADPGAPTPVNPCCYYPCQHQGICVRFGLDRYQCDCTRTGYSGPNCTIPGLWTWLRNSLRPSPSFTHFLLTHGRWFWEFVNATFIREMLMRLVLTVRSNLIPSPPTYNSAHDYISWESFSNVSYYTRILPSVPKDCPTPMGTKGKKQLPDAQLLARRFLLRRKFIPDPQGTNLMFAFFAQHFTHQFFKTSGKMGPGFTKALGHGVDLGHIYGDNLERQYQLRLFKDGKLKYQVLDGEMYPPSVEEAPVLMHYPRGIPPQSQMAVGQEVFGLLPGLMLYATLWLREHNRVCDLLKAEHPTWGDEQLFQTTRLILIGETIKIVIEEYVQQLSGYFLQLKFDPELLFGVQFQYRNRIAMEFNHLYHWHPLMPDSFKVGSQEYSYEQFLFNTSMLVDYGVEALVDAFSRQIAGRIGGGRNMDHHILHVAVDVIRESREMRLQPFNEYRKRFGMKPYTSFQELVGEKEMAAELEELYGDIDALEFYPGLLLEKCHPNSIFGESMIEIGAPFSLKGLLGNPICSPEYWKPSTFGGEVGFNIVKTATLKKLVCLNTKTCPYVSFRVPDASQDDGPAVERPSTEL
Output line: < 4.46

Input line: Determine reported pIC50 for Oc1cc(O)cc(CCc2ccccc2)c1 [DIHYDROPINOSYLVIN] ; test system: Prostaglandin G/H synthase 1 (Homo sapiens).
Output line: < 4.33

Input line: Provide Prostaglandin G/H synthase 1 (Homo sapiens) pIC50 reading for COc1cc(O)cc(CCc2ccccc2O)c1 [BATATASIN IV] .
Output line: < 4.39

Input line: Report pIC50 from Prostaglandin G/H synthase 1 (Homo sapiens) testing of COc1c(O)c(C)c(OC)c2c1CCc1c(O)cccc1O2 [BAUHINOXEPIN F]
Output line: < 4.48

----------
# System: Candida albicans
# Procedure details: Antifungal activity against Candida albicans by colorimetric method
# Type: functional, organism-based
Parameter measured: IC50

Input line: Report IC50, nothing else, for this molecule: COC1=C(C)C(=O)C2=C(CCc3cc(O)ccc3O2)C1=O [BAUHINOXEPIN I]
Output line: > 175 µM

Input line: Respond only with IC50 recorded for "COc1cc(O)cc(CCc2ccccc2O)c1"
Output line: > 205 µM

Input line: Using the record for COc1cc2c(c(O)c1C)Oc1cccc(O)c1CC2 [BAUHINOXEPIN C] , state its measured IC50.
Output line: 79.4 µM

Input line: Give recorded IC50. "COc1cc(CCc2ccccc2O)cc(O)c1C"
Output line: > 194 µM

Input line: Tell me its IC50 given COc1c(O)c(C)c(OC)c2c1CCc1c(O)cccc1O2 [BAUHINOXEPIN F] as the entry.
Output line: 77.8 µM

Input line: # return recorded IC50 for input "Cc1c(O)cc2c(c1O)C(=O)C[C@@H](c1ccccc1)O2"
Output line: > 185 µM

Input line: Retrieve IC50 measured for COC1=CC(=O)C2=C(CCc3ccccc3O2)C1=O [BAUHINOXEPIN J] and print it.
Output line: > 195 µM

Input line: Specify measured IC50 for "COc1cc(CCc2ccccc2O)cc(OC)c1" .
Output line: 49.6 µM

Input line: Given the molecule COc1c(C)c(OC)c2c(c1O)CCc1c(O)cccc1O2 [BAUHINOXEPIN E] , write its reported IC50.
Output line: > 166 µM

Input line: Annotate the molecule COC1=C(C)C(=O)C2=C(CCc3c(O)cccc3O2)C1=O [BAUHINOXEPIN H] with its measured IC50.
Output line: > 175 µM

Input line: Please supply the value of reported IC50 for the item Oc1cc(O)cc(CCc2ccccc2)c1 [DIHYDROPINOSYLVIN]
Output line: > 234 µM

Input line: Identify measured IC50 associated with "COc1cc(OC)c(O)c([C@@H]2Cc3ccccc3O2)c1"
Output line: 130 µM

Input line: Given the molecule "COc1cc(O)cc(CCc2ccccc2)c1" , write its reported IC50.
Output line: 68.4 µM

Input line: Provide IC50 value for the following molecule: "Cc1c(O)c(C)c2c(c1O)C(=O)C[C@@H](c1ccccc1)O2"
Output line: > 176 µM

Input line: Please list IC50 recorded for the molecule COc1c(C)c(O)cc2c1Oc1ccccc1C(O)C2 (stereo not drawn) [BAUHINOXEPIN G]
Output line: > 184 µM
